Data origin, for the record: ChEMBL document CHEMBL4513216

Each item that follows carries a reported INHIBITION.
system: Plasmodium berghei; experiment: Screen against P. berghei liver stage (PbLuc), transformed with Luciferase, at 10uM; format: functional, HepG2; conditions: tested at 10 uM
The campaign covered roughly 69,000 compounds. About 8,600 (12%) showed an effect of 50% or more. This is one part of a sample in which strong results are shown more often than they occur.
Numeric answer only, unit % assumed.

Look over these answered cases.
INHIBITION for Plasmodium berghei with input "O=C(CCn1c(C(F)F)cc2cccnc21)NC1CC1" equals 22

INHIBITION for Plasmodium berghei with input "O=C(O)CCn1nc(C(F)(F)F)c(Cl)c1C1CC1" equals 31.7

INHIBITION for Plasmodium berghei with input COc1cccc(OC)c1C(=O)N1CC(=O)N(C2CCC2)CC(O)C1 (centres undefined) equals 4.82

INHIBITION for Plasmodium berghei with input "Cc1n[nH]cc1CNCc1cccc(OCC(F)(F)F)c1" equals 66.3

INHIBITION for Plasmodium berghei with input "Cn1nc(CN2CCCCC2)c2c1CN(C(=O)c1cccc(C#N)c1)C2" equals 46.3

INHIBITION for Plasmodium berghei with input "Cc1n[nH]cc1CNCc1ccnc(OCC(F)(F)F)c1" equals 28.5

INHIBITION for Plasmodium berghei with input "CCn1ccnc1CN1CCCN(C(=O)c2csc(C)n2)CC1" equals -1.55

INHIBITION for Plasmodium berghei with input CN1CC(c2ccccc2)CC2(CCN(C(=O)c3ccccc3)CC2)C1 (centres undefined) equals 49.4

---
INHIBITION for Plasmodium berghei with input "Cc1nc(-c2noc3ccc(C(=O)NCCN(C)C)cc23)co1" equals 8.31

INHIBITION for Plasmodium berghei with input "Cn1cc(C(=O)NC[C@@H]2OC[C@H]3CN(S(C)(=O)=O)CC[C@H]32)cn1" equals 18.5

INHIBITION for Plasmodium berghei with input O=c1c2ccccc2nc2n1C(CSc1cccc(C(F)(F)F)c1)CN2 (centres undefined) equals 37.8

INHIBITION for Plasmodium berghei with input "Cn1ccnc1C(=O)NC[C@@H]1OC[C@H]2CN(S(C)(=O)=O)CC[C@H]21" equals 64.7

INHIBITION for Plasmodium berghei with input "CN1CCC(CCNC(=O)c2ccc(N(C)S(C)(=O)=O)cc2Cl)CC1" equals 8.47

INHIBITION for Plasmodium berghei with input "CN1CC[C@@H]2[C@@H](CO[C@H]2CNC(=O)c2nccn2C)C1" equals -17.7

----------
system: Plasmodium berghei; test: Screen against P. berghei liver stage (PbLuc), transformed with Luciferase, at 10uM; format: functional, HepG2; conditions: tested at 10 uM
Hit rate of the full screen: of about 69,000 compounds, about 8,600 (12%) showed an effect of 50% or more. Many of the other results were omitted from the sample, so strong results are more common in it than they were.
parameter.measured: INHIBITION (%)
Numeric answer only, unit % assumed.

Look over these answered cases.
Entry "c1cncc(N2CCC3(CCCN(c4ccncc4)C3)CC2)c1" , INHIBITION reported as -29

Entry "CN1CCOCC12CCN(c1ccc(C#N)cc1)CC2" , INHIBITION reported as -15.3

---
Entry "CC(C)N(C)[C@@H]1CCN(Cc2nccs2)[C@H]1Cc1ccncc1" , INHIBITION reported as 24.6

Entry CC1CN(C(=O)Nc2cc(C(F)(F)F)c[nH]c2=O)CCO1 (configuration not stated) , INHIBITION reported as -4.12

----------
test system: Plasmodium berghei; assay: Screen against P. berghei liver stage (PbLuc), transformed with Luciferase, at 10uM; format: functional, HepG2; conditions: tested at 10 uM
The campaign covered roughly 69,000 compounds. About 8,600 (12%) showed an effect of 50% or more. This excerpt belongs to a sample that is enriched for strong results.
// classify: if (INHIBITION < 30%) true else false

Use the examples below as a reference point.
Problem: Strictly below 30%: is that where INHIBITION of CCOCCN1CCN(CC(O)c2ccc(F)cc2)CC1 (configuration not stated) sits?
Result: false

Problem: Strictly below 30%: is that where INHIBITION of "Fc1ccc2[nH]c([C@H]3CCN(C4CCOCC4)C3)nc2c1" sits?
Result: false

Problem: Strictly below 30%: is that where INHIBITION of "Cn1nc2c(cc1=O)CN(CC(=O)Nc1nccs1)CC2" sits?
Result: true

Problem: Strictly below 30%: is that where INHIBITION of "CCOCCCNc1ncc(-c2onc(C)c2C)c(-c2ccco2)n1" sits?
Result: true

Problem: Strictly below 30%: is that where INHIBITION of "CO[C@H]1CO[C@@]2(CCCN(S(=O)(=O)c3ccccc3)C2)C1" sits?
Result: false

Problem: Strictly below 30%: is that where INHIBITION of "CC(C)(O)CN1CCN(C(=O)c2cccn2Cc2cccnc2)CC1" sits?
Result: false

---
Problem: Strictly below 30%: is that where INHIBITION of CN(CC(=O)N1CCCCC1Cn1cccn1)Cc1ccccc1 (configuration not stated) sits?
Result: true

----------
Each item that follows carries a reported INHIBITION.
test system: Plasmodium berghei; test: Screen against P. berghei liver stage (PbLuc), transformed with Luciferase, at 10uM; assay type: functional, HepG2; conditions: tested at 10 uM
In all, about 69,000 compounds went through this assay and about 8,600 (12%) showed an effect of 50% or more. For the sample, strong results were picked, then their nearest neighbours and some compounds at random.
Numeric answer only, unit % assumed.

Look over these answered cases.
Entry "CCOc1ncccc1CNC(=O)Nc1ccc(OC)c(OC)c1" , INHIBITION reported as -49.5

Entry Cc1ccccc1NC(=O)NCC(C)(O)c1cccs1 (stereo unspecified) , INHIBITION reported as 48.8

Entry CCC(=O)N1CCC(Cc2ccccc2-c2ccccc2)(C(N)=O)C1 (stereo unspecified) , INHIBITION reported as 36.4

---
Entry CCOc1ncccc1C(=O)N1CCCC1c1c(C)nn(C)c1OC (stereo unspecified) , INHIBITION reported as 32.4

Entry "CN(C)C(=O)N1CCC[C@]2(C(=O)N(C)C)CN(c3ccccn3)C[C@@H]2C1" , INHIBITION reported as -2.35

Entry "Cc1cc(C(=O)N2CCC3(CCNCC3)CC2)c2cccc(C)c2n1" , INHIBITION reported as 18.4

Entry "COCCOc1ccccc1C(=O)NCCN(C)C(C)C" , INHIBITION reported as 4.52

Entry CC(=O)N1CCN(C(C)C)CC(COc2ccccc2)C1 (stereo unspecified) , INHIBITION reported as -6.92

Entry Cc1cnn(CC2CCCN2C(=O)Cc2c(C)noc2C)c1 (stereo unspecified) , INHIBITION reported as 29.4

Entry "O=C(c1ccccc1)N1C[C@H]2CCC[C@@]2(COCc2ccncc2)C1" , INHIBITION reported as -4.88

----------
test system: Plasmodium berghei; test: Screen against P. berghei liver stage (PbLuc), transformed with Luciferase, at 10uM; assay type: functional, HepG2; details: tested at 10 uM
Screen size: about 69,000 compounds; about 8,600 (12%) showed an effect of 50% or more. The list comes from a sample in which strong results are over-represented; it also holds close analogues and randomly drawn compounds.
parameter.measured: INHIBITION (%)
Numeric answer only, unit % assumed.

Look over these answered cases.
Entry Cc1cc(C)n(CC2CN(CC(=O)N3CCC3)CCO2)n1 (stereo unspecified) , INHIBITION reported as 8.64

Entry "COc1cc(CN(C)Cc2cccnc2)c(SC)cc1OC" , INHIBITION reported as 54.7

Entry "CN(CC(=O)N1CCC(COc2ccccc2)CC1)c1cnccn1" , INHIBITION reported as -16.295

Entry O=C(NCc1ccc(Cl)cc1)C1CCCN(c2ccc3nncn3n2)C1 (stereo unspecified) , INHIBITION reported as 15.7

---
Entry "COc1cc(CN(C)Cc2ccncc2)c(SC)cc1OC" , INHIBITION reported as 39.3

Entry O=C(NCc1ccco1)N1CCCCC1c1nc(C2CC2)no1 (stereo unspecified) , INHIBITION reported as 16

Entry "O=C1COC2(CCN(c3ncccn3)CC2)CN1" , INHIBITION reported as 70

----------
Each item that follows carries a reported INHIBITION.
tested on: Plasmodium berghei; test: Screen against P. berghei liver stage (PbLuc), transformed with Luciferase, at 10uM; assay type: functional, HepG2; conditions: tested at 10 uM
Out of some 69,000 compounds screened, about 8,600 (12%) showed an effect of 50% or more. This excerpt belongs to a sample that is enriched for strong results.
Numeric answer only, unit % assumed.

Look over these answered cases.
Entry "CCCc1cc(C(=O)N[C@@H]2CCC[C@@H](N3CCCC3)[C@@H]2O)no1" , INHIBITION reported as 13.7

Entry CC(C)c1nc(C(=O)N2CCOCC2CC(=O)c2ccco2)c[nH]1 (stereo not given) , INHIBITION reported as 9.48

Entry CC(C)CCn1cc(C(C(=O)O)N2CCC(N3CCSCC3)CC2)cn1 (stereo not given) , INHIBITION reported as 3.06

Entry "COCCN1CCn2cc(CNC(=O)C3CCC3)nc2C1" , INHIBITION reported as -10.3

Consider the record given below.
Entry CCc1nc2c(NCC3COc4c(cccc4OC)C3)ncnc2o1 (stereo not given) , INHIBITION reported as 55.4
